conditionSet: in isobutanol, 308.15 K

chemicalStructure: COc1ccc(C(=O)O)c(OC)c1
solubility (mole fraction): 0.0183

====

conditionSet: in n-propanol, 313.15 K

chemicalStructure: COc1ccc(C(=O)O)c(OC)c1
solubility (mole fraction): 0.0325

====

conditionSet: in isopropanol, 313.15 K
attributeMeasured: solubility (mole fraction)

chemicalStructure: COc1ccc(C(=O)O)c(OC)c1
reading: 0.0259

====

conditionSet: in n-propanol, 288.15 K
attributeMeasured: solubility (mole fraction)

chemicalStructure: COc1ccc(C(=O)O)c(OC)c1
attributeMeasured: solubility (mole fraction)
reading: 0.0087

====

conditionSet: in n-propanol, 298.15 K

chemicalStructure: COc1ccc(C(=O)O)c(OC)c1
solubility (mole fraction): 0.015
